Assayed system: Mitogen-activated protein kinase kinase kinase kinase 4 (Homo sapiens, UniProt O95819); also: in the data inactive means no Kd found up to 30 µM
Sequence (O95819 whole entry): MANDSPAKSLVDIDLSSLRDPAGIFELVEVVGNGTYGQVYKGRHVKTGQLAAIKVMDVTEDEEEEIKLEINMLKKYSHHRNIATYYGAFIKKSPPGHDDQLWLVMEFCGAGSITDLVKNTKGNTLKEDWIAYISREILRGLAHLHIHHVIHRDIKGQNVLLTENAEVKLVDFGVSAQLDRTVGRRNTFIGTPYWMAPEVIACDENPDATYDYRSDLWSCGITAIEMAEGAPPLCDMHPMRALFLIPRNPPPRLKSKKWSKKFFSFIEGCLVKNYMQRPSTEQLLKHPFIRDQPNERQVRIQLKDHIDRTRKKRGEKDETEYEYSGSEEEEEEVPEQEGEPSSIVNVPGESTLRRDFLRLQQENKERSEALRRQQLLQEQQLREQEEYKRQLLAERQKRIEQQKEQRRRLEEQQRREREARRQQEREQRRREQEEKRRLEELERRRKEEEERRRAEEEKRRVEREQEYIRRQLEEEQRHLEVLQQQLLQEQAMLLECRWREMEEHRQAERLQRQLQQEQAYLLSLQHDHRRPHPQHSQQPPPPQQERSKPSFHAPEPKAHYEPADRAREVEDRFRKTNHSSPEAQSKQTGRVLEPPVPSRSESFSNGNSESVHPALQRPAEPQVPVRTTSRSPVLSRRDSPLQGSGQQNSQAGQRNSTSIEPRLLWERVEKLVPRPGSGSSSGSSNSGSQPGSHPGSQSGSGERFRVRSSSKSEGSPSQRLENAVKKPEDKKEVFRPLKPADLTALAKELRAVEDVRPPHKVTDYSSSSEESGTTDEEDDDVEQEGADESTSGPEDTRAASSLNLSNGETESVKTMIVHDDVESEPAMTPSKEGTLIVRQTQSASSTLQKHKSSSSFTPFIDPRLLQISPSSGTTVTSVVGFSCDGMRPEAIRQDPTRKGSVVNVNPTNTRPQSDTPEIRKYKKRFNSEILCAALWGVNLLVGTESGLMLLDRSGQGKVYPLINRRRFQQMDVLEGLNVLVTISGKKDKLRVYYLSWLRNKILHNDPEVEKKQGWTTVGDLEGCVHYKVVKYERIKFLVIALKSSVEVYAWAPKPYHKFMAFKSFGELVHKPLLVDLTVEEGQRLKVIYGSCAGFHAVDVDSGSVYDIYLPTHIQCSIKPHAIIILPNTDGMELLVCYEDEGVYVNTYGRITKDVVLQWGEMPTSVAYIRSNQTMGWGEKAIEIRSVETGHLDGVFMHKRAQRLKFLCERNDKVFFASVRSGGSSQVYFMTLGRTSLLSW
Calls of active or inactive are those of the source.
Outcome (select one): 1.0 for active, 0.0 for inactive

Here are 3 molecules together with their reported answers.
molecule="CC(C)Nc1cc(-c2c[nH]c(C(=O)N[C@H](CO)c3cccc(Cl)c3)c2)c(Cl)cn1 [ULIXERTINIB]" assayed_system="Mitogen-activated protein kinase kinase kinase kinase 4 (Homo sapiens, UniProt O95819)" answer_label=0.0
molecule="CCN1CCN(Cc2ccc(-c3cc4c(N[C@H](C)c5ccccc5)ncnc4[nH]3)cc2)CC1 [AEE-788]" assayed_system="Mitogen-activated protein kinase kinase kinase kinase 4 (Homo sapiens, UniProt O95819)" answer_label=1.0
molecule="Cn1cc(-c2ccc(F)c(C(F)(F)F)c2)nc1C1CCN(c2ncnc3[nH]ncc23)CC1 [LY-2584702]" assayed_system="Mitogen-activated protein kinase kinase kinase kinase 4 (Homo sapiens, UniProt O95819)" answer_label=0.0

Ask | Field: outcome | Entry: CNC(=O)c1ccc(C)c(-n2c(C)cc(OCc3ccc(F)cc3F)c(Br)c2=O)c1 [PH-797804]
Reply | 0.0

* * *

Assayed system: Bone morphogenetic protein receptor type-2 (Homo sapiens, UniProt Q13873); also: in the data inactive means no Kd found up to 30 µM
Sequence (Q13873 whole entry): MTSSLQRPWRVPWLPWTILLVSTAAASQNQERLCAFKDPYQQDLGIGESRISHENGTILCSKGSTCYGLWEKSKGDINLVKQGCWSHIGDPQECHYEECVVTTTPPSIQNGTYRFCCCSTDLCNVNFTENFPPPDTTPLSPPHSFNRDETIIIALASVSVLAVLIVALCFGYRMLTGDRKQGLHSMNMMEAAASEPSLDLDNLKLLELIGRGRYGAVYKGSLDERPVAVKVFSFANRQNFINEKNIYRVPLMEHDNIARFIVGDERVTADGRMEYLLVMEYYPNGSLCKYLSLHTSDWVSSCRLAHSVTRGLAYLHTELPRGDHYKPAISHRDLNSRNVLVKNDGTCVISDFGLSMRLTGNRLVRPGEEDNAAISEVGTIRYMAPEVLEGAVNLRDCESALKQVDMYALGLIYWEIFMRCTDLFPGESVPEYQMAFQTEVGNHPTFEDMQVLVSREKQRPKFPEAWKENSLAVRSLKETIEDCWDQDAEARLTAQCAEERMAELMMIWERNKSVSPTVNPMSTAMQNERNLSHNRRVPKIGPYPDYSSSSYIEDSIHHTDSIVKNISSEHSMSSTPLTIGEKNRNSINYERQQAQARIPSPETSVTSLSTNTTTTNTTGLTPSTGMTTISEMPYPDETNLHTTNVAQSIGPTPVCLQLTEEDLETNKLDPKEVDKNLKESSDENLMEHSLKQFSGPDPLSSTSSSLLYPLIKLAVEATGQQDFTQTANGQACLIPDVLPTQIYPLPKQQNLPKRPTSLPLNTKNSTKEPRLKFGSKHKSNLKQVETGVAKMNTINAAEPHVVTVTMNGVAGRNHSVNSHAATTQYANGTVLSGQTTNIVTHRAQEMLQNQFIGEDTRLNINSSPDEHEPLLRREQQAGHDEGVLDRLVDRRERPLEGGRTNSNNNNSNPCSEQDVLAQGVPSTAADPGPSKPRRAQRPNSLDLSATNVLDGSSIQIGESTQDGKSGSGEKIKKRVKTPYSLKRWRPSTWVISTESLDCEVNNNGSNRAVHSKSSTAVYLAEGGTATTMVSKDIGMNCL
The source made the active and inactive calls.
Outcome (select one): 1 = active, -1 = inactive

Here are 5 compounds together with their reported answers.
smiles_notation=Cn1cc(-c2ccc(F)c(C(F)(F)F)c2)nc1C1CCN(c2ncnc3[nH]ncc23)CC1 answer_label=-1
smiles_notation=CNS(=O)(=O)Nc1nccc(Cc2c(C)c3ccc(Oc4ncccn4)cc3oc2=O)c1F answer_label=-1
smiles_notation=COc1cc2nccc(Oc3ccc(NC(=O)NC4CC4)c(Cl)c3)c2cc1C(N)=O answer_label=-1
smiles_notation=CN1CCC(COc2cnc(-c3cccc(Cn4nc(-c5cccc(C#N)c5)ccc4=O)c3)nc2)CC1 answer_label=-1
smiles_notation=COc1cc(CCc2cc(NC(=O)c3ccc(N4C[C@@H](C)N[C@@H](C)C4)cc3)n[nH]2)cc(OC)c1 answer_label=-1

Ask | Field: outcome | Entry: Cc1cc(-c2cc(O)ccc2Cl)cc2nnc(Nc3ccc(OCCN4CCCC4)cc3)nc12
Reply | 1

Ask | Field: outcome | Entry: COc1cc(N2CCC(N3CCN(C)CC3)CC2)ccc1Nc1ncnc(Nc2ccccc2S(=O)(=O)C(C)C)n1
Reply | -1

Ask | Field: outcome | Entry: O=C(Nc1cccc(Cl)c1)Nc1ncc(CCNc2ncnc3ccsc23)s1
Reply | -1

* * *

Assayed system: Interleukin-1 receptor-associated kinase 3 (Homo sapiens, UniProt Q9Y616); also: in the data inactive means no Kd found up to 30 µM
Sequence (Q9Y616 whole entry): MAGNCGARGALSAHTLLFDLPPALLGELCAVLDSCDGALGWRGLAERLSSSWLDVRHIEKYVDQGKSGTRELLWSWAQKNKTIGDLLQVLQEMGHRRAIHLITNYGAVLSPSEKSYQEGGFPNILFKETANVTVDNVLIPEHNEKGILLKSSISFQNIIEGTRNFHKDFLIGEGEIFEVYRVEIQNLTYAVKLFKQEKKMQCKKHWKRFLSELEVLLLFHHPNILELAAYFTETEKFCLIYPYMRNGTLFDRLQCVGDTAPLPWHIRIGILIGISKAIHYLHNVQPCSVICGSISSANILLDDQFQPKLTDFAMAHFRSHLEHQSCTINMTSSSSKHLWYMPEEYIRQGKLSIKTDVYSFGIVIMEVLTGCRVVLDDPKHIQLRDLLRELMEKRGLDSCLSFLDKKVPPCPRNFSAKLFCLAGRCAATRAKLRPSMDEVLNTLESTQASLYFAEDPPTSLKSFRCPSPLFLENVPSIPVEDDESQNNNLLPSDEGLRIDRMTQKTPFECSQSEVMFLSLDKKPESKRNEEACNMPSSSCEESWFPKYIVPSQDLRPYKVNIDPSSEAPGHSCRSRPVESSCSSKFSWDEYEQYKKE
The source made the active and inactive calls.
Outcome (select one): active, inactive

Here are 10 compounds together with their reported answers.
compound=O=C(c1ccc(F)c(F)c1Nc1ccc(I)cc1F)N1CC(O)([C@@H]2CCCCN2)C1 answer_label=inactive
compound=Cc1c(F)cc(C(=O)NC2CC2)cc1-c1ccc(C(=O)NCC(C)(C)C)cn1 answer_label=inactive
compound=CC[C@@H]1C(=O)N(C)c2cnc(Nc3ccc(C(=O)N[C@H]4CC[C@H](N5CCN(CC6CC6)CC5)CC4)cc3OC)nc2N1C(C)C answer_label=inactive
compound=Cc1ccc(S(=O)(=O)Nc2nc3ccccc3nc2Nc2ccc3nsnc3c2)cc1 answer_label=inactive
compound=C1=C/COCc2cc(ccc2OCCN2CCCC2)Nc2nccc(n2)-c2cccc(c2)COC/1 answer_label=active
compound=CC(=O)Nc1cccc(-n2c(=O)n(C3CC3)c(=O)c3c(Nc4ccc(I)cc4F)n(C)c(=O)c(C)c32)c1 answer_label=inactive
compound=CCc1cnn2c(NCc3ccc[n+]([O-])c3)cc(N3CCCC[C@H]3CCO)nc12 answer_label=inactive
compound=CC[C@H](Nc1ncnc2[nH]cnc12)c1nc2cccc(F)c2c(=O)n1-c1ccccc1 answer_label=inactive
compound=COCCNCc1ccc(-c2cc3nccc(Oc4ccc(NC(=S)NC(=O)Cc5ccc(F)cc5)cc4F)c3s2)nc1 answer_label=inactive
compound=COc1cc2nccc(Oc3ccc(NC(=O)NC4CC4)c(Cl)c3)c2cc1C(N)=O answer_label=inactive

Consider now this further compound.
Ask | Field: outcome | Entry: Cc1ccc(-n2nc(C(C)(C)C)cc2NC(=O)NCc2cc(F)ccc2Oc2ccc3c(cnn3CCO)c2)cc1
Reply | inactive
